Listed next: entries and their corresponding pIC50.
biological target: Coenzyme A biosynthesis bifunctional protein CoaBC (Mycobacterium tuberculosis (strain ATCC 25618 / H37Rv), UniProt P9WNZ1); experiment: Biomol Green assay for MtCoaBC inhibitor, OD650 read
Sequence (P9WNZ1 whole entry): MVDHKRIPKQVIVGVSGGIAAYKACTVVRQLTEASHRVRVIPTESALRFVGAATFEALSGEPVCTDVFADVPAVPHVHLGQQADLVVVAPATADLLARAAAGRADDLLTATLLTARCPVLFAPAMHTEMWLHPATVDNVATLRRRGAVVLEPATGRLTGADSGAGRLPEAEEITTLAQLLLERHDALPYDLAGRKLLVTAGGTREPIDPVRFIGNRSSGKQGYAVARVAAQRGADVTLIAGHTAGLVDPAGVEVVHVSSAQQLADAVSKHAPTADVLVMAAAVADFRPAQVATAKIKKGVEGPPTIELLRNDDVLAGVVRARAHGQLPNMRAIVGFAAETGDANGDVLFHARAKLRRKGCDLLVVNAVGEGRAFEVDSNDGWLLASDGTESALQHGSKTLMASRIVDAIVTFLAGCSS
pIC50: −log10 of the molar value.

CCOCC1CCN(C(=O)C(c2ccccc2F)N(C)C)CC1 (stereo unspecified): < 4.52

// lookup pIC50 for Cc1nc(C2CCCN(C(=O)c3c(C)nn4cccnc34)C2)no1 (stereo unspecified)
< 4.52

// lookup pIC50 for Cc1ccc(CN2CCN(C3CCCC3)CC2CCO)o1 (stereo unspecified)
< 4.52

// lookup pIC50 for CCOCC1CN(C(=O)C2=CCCC2)Cc2cnn(C)c21 (stereo unspecified)
< 4.52

// lookup pIC50 for `COc1cnc(N2CC(N3CCOCC3)C2)nc1-c1ccnn1C`
< 4.30

// lookup pIC50 for `O=C(NCc1ccco1)[C@H]1C[C@@H]2CCN(c3nncs3)C[C@H]2O1`
< 4.52
